- Tested on: Escherichia coli TOP10;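 note: peptides expressed intracellularly from a pBAD plasmid library in pooled LB shake-flask culture, induced with 0.3% L-arabinose, DNA abundance read by NGS, three biological replicates, DESeq2 with apeglm shrinkage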
- test-name: shrunken log2 fold change of peptide-encoding DNA abundance (4.5 h post-induction vs induction); higher = less antimicrobial activity (less host growth inhibition)
- details: time post-induction: 4.5 h; library: site-saturation at positions 5, 18, 19, 20
Given measured shrunken log2 fold change, output Met if it is greater than or equal to 0.03 and Not met if not.

Example cases with answers are listed next.
RRIRTRPPRLPRPRPRPHRKPRP | Not met
RRIRGRPPRLPRPRPRPKIGPRP | Met
RRIRLRPPRLPRPRPRPPYRPRP | Not met
RRIRCRPPRLPRPRPRPRWQPRP | Not met
RRIRDRPPRLPRPRPRPCTLPRP | Not met
RRIRSRPPRLPRPRPRPYCYPRP | Not met
RRIRRRPPRLPRPRPRPSWRPRP | Met

Now consider a different sequence.
Say whether RRIRMRPPRLPRPRPRPNAIPRP shows shrunken log2 fold change of 0.03 or more.
Met
